tested on: miR-21; experiment: miR-21 luciferase sensor assay in Hela cells; assay type: cell-based; conditions: 4 nM oligonucleotide; Hela cells
Here the recorded luciferase value normalized to beta-galactosidase activity is given for each entry.
Reply with just the number.

Ae^MeCAST^MeCAGST^MeCTGASTASAGS^MeCTAe (ACATCAGTCTGATAAGCTA; listed as DNA, chemistry not fully specified) [Compound 25071]
50
UECEAFAFCFAFUFCFAFGFUFCEUEGEAFUFAFAFGFCFUEAE (antisense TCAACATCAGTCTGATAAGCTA; listed as DNA, chemistry not fully specified) [Compound 25919, reference compound]
84
TE^MeCAACSATCSAGTCSTGAUSAAGCSTAE (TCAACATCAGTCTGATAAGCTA; modified nucleosides with 5-methyl C, code letters not given here, further chemistry not given here) [Compound 25082]
112

Then there is this substance:
Asked: Annotate the substance Te^MeCASA^MeCAST^MeCAGST^MeCTGASTAAGS^MeCTAe (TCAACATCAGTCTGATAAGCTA; cEt, 5-methyl C and phosphorothioate modifications, code letters not given here, further chemistry not given here) [Compound 25067] with its measured luciferase value normalized to beta-galactosidase activity.
Given back: 43

----------
Here the recorded fold change in luciferase value relative to the mock treatment is given for each entry.
Test system: miR-21
Assay: miR-21 luciferase sensor assay in Hela cells
Format: cell-based
Details: concentration of anti-miR compound 5.6 (unit not given)
Description: The compounds were assessed for miR-21 inhibitory activity in a luciferase assay. A microRNA luciferase sensor construct was engineered using pGL3-MCS2 (Promega). The construct was introduced into Hela cells to test the ability of anti-miR compounds to inhibit activity of miR-21. […] Hela cells are passively lysed and luciferase activity measured using the Dual-Luciferase Reporter Assay System (Promega). […]
Strand notation (5' to 3'): a small letter for the sugar, then the base; units joined by * are phosphorothioate-linked, units joined directly phosphodiester-linked; [ ] holds rarer units or linkages, { } end groups; capitals alone tell only the bases. e = 2'-O-(2-methoxyethyl) (MOE); l = locked nucleic acid (LNA); [5mC] = 5-methylcytosine
Only the number, expressed in fold change, is required.

Some entries whose results are on file:
AE^MeCLAETE^MeCLAEGETE^MeCLTEGEAE^MeTLAEAEGE^MeCLTEAE (antisense eA*l[5mC]*eA*eT*l[5mC]*eA*eG*eT*l[5mC]*eT*eG*eA*lT*eA*eA*eG*l[5mC]*eT*eA) [Compound 25117, variation of 25070: each non-bicyclic nucleoside is 2′-MOE, each cytosine 5-methyl cytosine]
3.64
AE^MeCSAT^MeCSAGT^MeCSTGATSAAG^MeCSTAE (antisense ACATCAGTCTGATAAGCTA; MOE ends, cEt, 5-methyl C, unmarked nucleosides not given here, further chemistry not given here) [Compound 25922, variation of 25070: each cytosine is a 5-methyl cytosine]
8.81

Asked: Enter fold change in luciferase value relative to the mock treatment (test system miR-21) for AECSATCSAGTCSTGAUSAAGCSTAE (ACATCAGTCTGATAAGCTA; modified nucleosides, phosphorothioate linkages, chemistry not fully specified) [Compound 25070]
Given back: 6.22

----------
Here the recorded fold change in luciferase value relative to the mock treatment is given for each entry.
test system: miR-21; assay: miR-21 luciferase sensor assay in Hela cells; type: cell-based; conditions: concentration of anti-miR compound 0.6 (unit not given)
Strand notation (5' to 3'): a small letter for the sugar, then the base; units joined by * are phosphorothioate-linked, units joined directly phosphodiester-linked; [ ] holds rarer units or linkages, { } end groups; capitals alone tell only the bases. e = 2'-O-(2-methoxyethyl) (MOE); l = locked nucleic acid (LNA); k = constrained ethyl (cEt); [5mC] = 5-methylcytosine; d = 2'-deoxy (DNA)
The reply should consist of the numeric value with the unit placed after it.

Some entries whose results are on file:
AE^MeCSAT^MeCSAGT^MeCSTGATSAAG^MeCSTAE (antisense ACATCAGTCTGATAAGCTA; MOE ends, cEt, 5-methyl C, unmarked nucleosides not given here, further chemistry not given here) [Compound 25922, variation of 25070: each cytosine is a 5-methyl cytosine]
1.10 fold change
AE^MeCLAETE^MeCLAEGETE^MeCLTEGEAE^MeTLAEAEGE^MeCLTEAE (antisense eA*l[5mC]*eA*eT*l[5mC]*eA*eG*eT*l[5mC]*eT*eG*eA*lT*eA*eA*eG*l[5mC]*eT*eA) [Compound 25117, variation of 25070: each non-bicyclic nucleoside is 2′-MOE, each cytosine 5-methyl cytosine]
1.15 fold change
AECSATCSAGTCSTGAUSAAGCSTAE (ACATCAGTCTGATAAGCTA; modified nucleosides, phosphorothioate linkages, chemistry not fully specified) [Compound 25070]
1.01 fold change

Asked: Annotate the substance AE^MeCSAETE^MeCSAEGETE^MeCSTEGEAE^MeTSAEAEGE^MeCSTEAE (antisense eA*k[5mC]*eA*eT*k[5mC]*eA*eG*eT*k[5mC]*eT*eG*eA*kT*eA*eA*eG*k[5mC]*eT*eA; further chemistry not given here) [Compound 25116, variation of 25070: each non-bicyclic nucleoside is 2′-MOE, each cytosine 5-methyl cytosine] with its measured fold change in luciferase value relative to the mock treatment.
Given back: 0.98 fold change

Asked: Annotate the substance AECSATCSAGTCSTGAUSAAGCSTAS (antisense ACATCAGTCTGATAAGCTA; cEt and 2'-MOE nucleosides, code letters not given here, further chemistry not given here) [Compound 25923, variation of 25070: 3′-terminal nucleoside is a cEt nucleoside rather than 2′-MOE nucleoside] with its measured fold change in luciferase value relative to the mock treatment.
Given back: 1.01 fold change

Asked: Annotate the substance AE^MeCSAT^MeCSAGT^MeCSTGATSAAG^MeCSTAS (antisense eA*k[5mC]*dA*dT*k[5mC]*dA*dG*dT*k[5mC]*dT*dG*dA*kT*dA*dA*dG*k[5mC]*dT*kA; further chemistry not given here) [Compound 25924, variation of 25070: 3′-terminal cEt nucleoside and each cytosine is a 5-methyl cytosine] with its measured fold change in luciferase value relative to the mock treatment.
Given back: 1.25 fold change

----------
Here the recorded fold change in luciferase value relative to the mock treatment is given for each entry.
test system: miR-21; assay: miR-21 luciferase sensor assay in Hela cells; format: cell-based; conditions: concentration of anti-miR compound 16.7 (unit not given)
Strand notation (5' to 3'): a small letter for the sugar, then the base; units joined by * are phosphorothioate-linked, units joined directly phosphodiester-linked; [ ] holds rarer units or linkages, { } end groups; capitals alone tell only the bases. e = 2'-O-(2-methoxyethyl) (MOE); k = constrained ethyl (cEt); [5mC] = 5-methylcytosine; d = 2'-deoxy (DNA)
Only the number, expressed in fold change, is required.

Some entries whose results are on file:
AE^MeCSAT^MeCSAGT^MeCSTGATSAAG^MeCSTAS (antisense eA*k[5mC]*dA*dT*k[5mC]*dA*dG*dT*k[5mC]*dT*dG*dA*kT*dA*dA*dG*k[5mC]*dT*kA; further chemistry not given here) [Compound 25924, variation of 25070: 3′-terminal cEt nucleoside and each cytosine is a 5-methyl cytosine]
13.01
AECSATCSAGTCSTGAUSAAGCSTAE (ACATCAGTCTGATAAGCTA; modified nucleosides, phosphorothioate linkages, chemistry not fully specified) [Compound 25070]
11.28

Asked: Annotate the substance AE^MeCSAT^MeCSAGT^MeCSTGATSAAG^MeCSTAE (antisense ACATCAGTCTGATAAGCTA; MOE ends, cEt, 5-methyl C, unmarked nucleosides not given here, further chemistry not given here) [Compound 25922, variation of 25070: each cytosine is a 5-methyl cytosine] with its measured fold change in luciferase value relative to the mock treatment.
Given back: 11.60

----------
test system: miR-21; experiment: miR-21 luciferase sensor assay in Hela cells; format: cell-based; details: 20 nM oligonucleotide; Hela cells
reported_metric: luciferase value normalized to beta-galactosidase activity
Reply with just the number.

TE^MeCEAEAECSAETECSAEGETECSTEGEAEUSAEAEGECSTEAE (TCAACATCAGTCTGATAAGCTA; modified nucleosides and phosphorothioate, code letters not given here, further chemistry not given here) [Compound 25068]
86
AECSAETECSAEGETECSTEGEAEUSAEAEGECSTEAE (ACATCAGTCTGATAAGCTA; anti-miR; sugar and backbone modifications, code letters not given here, further chemistry not given here) [Compound 25072]
86
Ae^MeCAST^MeCAGST^MeCTGASTASAGS^MeCTAe (ACATCAGTCTGATAAGCTA; listed as DNA, chemistry not fully specified) [Compound 25071]
63

Then there is this substance:
Asked: Annotate the substance TE^MeCAACSATCSAGTCSTGAUSAAGCSTAE (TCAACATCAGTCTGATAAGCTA; modified nucleosides with 5-methyl C, code letters not given here, further chemistry not given here) [Compound 25082] with its measured luciferase value normalized to beta-galactosidase activity.
Given back: 147

----------
system: miR-21; assay: miR-21 luciferase sensor assay in Hela cells; format: cell-based; details: concentration of anti-miR compound 16.7 (unit not given)
Strand notation (5' to 3'): a small letter for the sugar, then the base; units joined by * are phosphorothioate-linked, units joined directly phosphodiester-linked; [ ] holds rarer units or linkages, { } end groups; capitals alone tell only the bases. e = 2'-O-(2-methoxyethyl) (MOE); l = locked nucleic acid (LNA); k = constrained ethyl (cEt); [5mC] = 5-methylcytosine
Here the recorded fold change in luciferase value relative to the mock treatment is given for each entry.
Only the number, expressed in fold change, is required.

Some entries whose results are on file:
AE^MeCLAETE^MeCLAEGETE^MeCLTEGEAE^MeTLAEAEGE^MeCLTEAE (antisense eA*l[5mC]*eA*eT*l[5mC]*eA*eG*eT*l[5mC]*eT*eG*eA*lT*eA*eA*eG*l[5mC]*eT*eA) [Compound 25117, variation of 25070: each non-bicyclic nucleoside is 2′-MOE, each cytosine 5-methyl cytosine]
7.36
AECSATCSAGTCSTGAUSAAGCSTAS (antisense ACATCAGTCTGATAAGCTA; cEt and 2'-MOE nucleosides, code letters not given here, further chemistry not given here) [Compound 25923, variation of 25070: 3′-terminal nucleoside is a cEt nucleoside rather than 2′-MOE nucleoside]
11.34

Then there is this substance:
Asked: Annotate the substance AE^MeCSAETE^MeCSAEGETE^MeCSTEGEAE^MeTSAEAEGE^MeCSTEAE (antisense eA*k[5mC]*eA*eT*k[5mC]*eA*eG*eT*k[5mC]*eT*eG*eA*kT*eA*eA*eG*k[5mC]*eT*eA; further chemistry not given here) [Compound 25116, variation of 25070: each non-bicyclic nucleoside is 2′-MOE, each cytosine 5-methyl cytosine] with its measured fold change in luciferase value relative to the mock treatment.
Given back: 5.64
